Molecular target: T1, CRBN, Q96SW2;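 also: pooled lentiviral library of zinc finger degron-EGFP fusions in mCherry-positive Jurkat cells, FACS-sorted after compound exposure, with degron abundance counted by next-generation sequencing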
T1 chain: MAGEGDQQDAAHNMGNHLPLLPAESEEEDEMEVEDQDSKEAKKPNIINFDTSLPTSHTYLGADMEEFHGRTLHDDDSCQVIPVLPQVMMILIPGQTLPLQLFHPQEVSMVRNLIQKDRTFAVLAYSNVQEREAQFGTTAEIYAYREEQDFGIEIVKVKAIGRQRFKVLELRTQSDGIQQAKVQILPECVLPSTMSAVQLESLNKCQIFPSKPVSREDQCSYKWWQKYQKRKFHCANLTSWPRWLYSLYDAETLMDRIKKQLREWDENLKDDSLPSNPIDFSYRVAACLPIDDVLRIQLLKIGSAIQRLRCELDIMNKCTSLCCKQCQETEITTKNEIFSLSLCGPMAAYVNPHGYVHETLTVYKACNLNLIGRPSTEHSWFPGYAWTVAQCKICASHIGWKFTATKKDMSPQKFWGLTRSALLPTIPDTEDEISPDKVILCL
Test: log2 fold change of degron read counts, EGFP-low vs EGFP+ sorted cells (limma voom), compound-induced degradation; higher = more compound-induced degradation of the degron-EGFP fusion; degrons are variants of IKZF1/3 zinc finger 2; compound dose not given here
Details: Jurkat; 18 h; compound: thalidomide
In all, about 8,300 sequences were measured (“log2 fold change of degron read counts, EGFP-low vs EGFP+ sorted cells (limma voom), compound-induced degradation”: median about -1.1, highest 2% from about 3.2 on). This is one part of a sample in which the highest values are shown more often than they occur.
measure name: log2 fold change of degron read counts
Note: the reply should be a number with no unit written.

FWCEVCGAVFTQKGNLLRHIKL [46F_47W_49E_50V_52G_53A_54V_55F_67L_, Q9UKT9]: 0.594

Consider the sequence FCCEICGHVFTQKGNLLRHIKL [46F_47C_49E_50I_52G_53H_54V_55F_67L_, Q9UKT9] and give its measured log2 fold change of degron read counts.
-2.16

What about this sequence? FRCDICGAYFTQKGNLLRHIKL [46F_47R_49D_50I_52G_53A_54Y_55F_67L_, Q9UKT9]
0.62

What about this sequence? FRCDICGACFTQKGNLLRHIKL [46F_47R_49D_50I_52G_53A_54C_55F_67L_, Q9UKT9]
0.116

What about this sequence? FFCDICGACFTQKGNLLRHIKL [46F_47F_49D_50I_52G_53A_54C_55F_67L_, Q9UKT9]
-1.14

What about this sequence? FMCDICGACFTQKGNLLRHIKL [46F_47M_49D_50I_52G_53A_54C_55F_67L_, Q9UKT9]
-0.555

What about this sequence? FWCDICGACFTQKGNLLRHIKL [46F_47W_49D_50I_52G_53A_54C_55F_67L_, Q9UKT9]
-0.4

What about this sequence? FACDICGACFTQKGNLLRHIKL [46F_47A_49D_50I_52G_53A_54C_55F_67L_, Q9UKT9]
-1.27

What about this sequence? FHCDICGACFTQKGNLLRHIKL [46F_47H_49D_50I_52G_53A_54C_55F_67L_, Q9UKT9]
-1.25
